Biological target: T1, cynomolgus monkey CD47 on transfected CHO-K1 cells (cynomolgus monkey, UniProt A0A5F8AK49 19-323 (rhesus entry))
T1 construct: whole, on cells; also called cyno CD47+ cells
Experiment: flow cytometry, cyno CD47-transfected CHO-K1, FIG. 6
Quantity Measured: maximum MFI, fold over untransfected CHO-K1

{"columns": ["Binder", "Observed Measurement"],
 "data": [
  ["F-E7 in human IgG1null format (antibody, V domains shown, IgG1null (L234A/L235A/G237A), kappa) VH: EVQLVQSGAEVKKPGESLKISCKGSGYSFTNYYIFWVRQMPGKGLEWMGIINPVNGDTNYNPSFQGQVTISADKSISTAYLQWSSLKASDTAMYYCARGGYTMGKWGQGTLVTVSS VL: DIVMTQSPLSLPVTPGEPASISCRSSQSLVHSNGNTYLDWYLQKPGQSPQLLIYKGSYRFSGVPDRFSGSGSGTDFTLKISRVEAEDVGVYYCSQATHTPRTFGQGTKVEIK", "> 10 fold"]
]}

Q: Give a short answer stating reported maximum MFI, fold over untransfected CHO-K1 for D-H3 in human IgG4(S228P) format (antibody, V domains shown, IgG4(S228P), kappa; also called D-H3 IgG4) VH: EVQLVQSGAEVKKPGESLKISCKGSGYSFTNYYIFWVRQMPGKGLEWMGDINPVNGDTNYSPSFQGQVTISADKSISTAYLQWSSLKASDTAMYYCARGGYTPDYWGQGTLVTVSS VL: DIVMTQSPLSLPVTPGEPASISCRSSQSLLHSNGYNYLHWYLQKPGQSPQLLIYKGSNRFSGVPDRFSGSGSGTDFTLKISRVEAEDVGVYYCSQNLHVPRTFGQGTKVEIK .
A: > 10 fold
